Tested on: MCF-10A
Test: normalised response (% of control), CellTiter-Glo; higher = more viable cells (100 = DMSO, 0 = benzethonium chloride kill control)
Conditions: incubation time: 72 h
Property: normalised response
Report field: quantity (unit follows the number).

The following compounds have reported results that may help.
COc1cccc2c1C(=O)c1c(O)c3c(c(O)c1C2=O)C[C@@](O)(C(=O)CO)C[C@@H]3O[C@H]1C[C@H](N)[C@H](O)[C@H](C)O1 [Doxorubicin] (1000 nM) | 44%
COc1cccc2cc(-c3nc([C@H]4CC[C@H](C(=O)O)CC4)n4ncnc(N)c34)[nH]c12 [OSI-027] (10000 nM) | 30.5%

Next compound, normalised response to be filled in.
Query Cc1ccc(F)c(NC(=O)Nc2ccc(-c3cccc4[nH]nc(N)c34)cc2)c1 [Linifanib] (1000 nM) yields normalised response of 106%
